These measurements were taken from paper PMC2574997.

TARGET_OR_SYSTEM: PKCα (Mus musculus, UniProt P20444)
ASSAY_NAME: Competition with [3H]PDBU binding to PKCα
RECORDED_METRIC: Ki

{"COMPOUND": "CCCC(CCC)C(=O)OCC1(CO)C/C(=C\\c2ccc(F)c(Br)c2)C(=O)O1 (stereo not shown) [L2-B12]", "TARGET_OR_SYSTEM": "PKCα (Mus musculus, UniProt P20444)", "RESULT": "~2 nM"}

----------
TARGET_OR_SYSTEM: PKCα (Mus musculus)
ASSAY_NAME: Competition with [3H]PDBU binding to PKCα
EXPERIMENTAL_CONDITIONS: Library 1; pure sample = E-isomer; relative to unresolved library E/Z mixture

{"COMPOUND": "COc1ccc(/C=C2\\CC(CO)(COC(=O)c3c(C)cc(C)cc3C)OC2=O)cc1 (stereo not shown)", "Ratio Ki crude/Ki pure": 32.0}
{"COMPOUND": "COc1ccc(/C=C2\\CC(CO)(COC(=O)c3c(C(C)C)cc(C(C)C)cc3C(C)C)OC2=O)cc1 (stereo not shown)", "Ratio Ki crude/Ki pure": 24.6}
{"COMPOUND": "CN(C)c1ccc(/C=C2\\CC(CO)(COC(=O)c3ccc(N(C)C)cc3)OC2=O)cc1 (stereo not shown)", "Ratio Ki crude/Ki pure": 10.6}
{"COMPOUND": "CN(C)c1ccc(/C=C2\\CC(CO)(COC(=O)c3ccc([N+](=O)[O-])cc3)OC2=O)cc1 (stereo not shown)", "Ratio Ki crude/Ki pure": 5.8}
{"COMPOUND": "COc1ccc(C(=O)OCC2(CO)C/C(=C\\c3ccc([N+](=O)[O-])cc3)C(=O)O2)cc1 (stereo not shown)", "Ratio Ki crude/Ki pure": 2.7}
{"COMPOUND": "COc1ccc(/C=C2\\CC(CO)(COC(=O)c3ccc(OC)cc3)OC2=O)cc1 (stereo not shown)", "Ratio Ki crude/Ki pure": 2.6}
{"COMPOUND": "O=C1OC(CO)(COC(=O)c2ccc([N+](=O)[O-])cc2)C/C1=C\\c1ccc([N+](=O)[O-])cc1 (stereo not shown)", "Ratio Ki crude/Ki pure": 5.2}
{"COMPOUND": "COc1ccc(/C=C2\\CC(CO)(COC(=O)c3ccc(N(C)C)cc3)OC2=O)cc1 (stereo not shown)", "Ratio Ki crude/Ki pure": 7.5}
{"COMPOUND": "COc1ccc(C(=O)OCC2(CO)C/C(=C\\c3ccc(N(C)C)cc3)C(=O)O2)cc1 (stereo not shown)", "Ratio Ki crude/Ki pure": 8.7}
{"COMPOUND": "CCCCC(CC)C(=O)OCC1(CO)C/C(=C\\c2ccc(N(C)C)cc2)C(=O)O1 (stereo not shown) [L1-E2]", "Ratio Ki crude/Ki pure": 7.4}
